target: UniProt:Q16512; experiment: radiometric filter-binding kinase assay, Kinase HotSpot; conditions: compound 0.5 µM; ATP 10 µM
Sequence (Q16512 whole entry, looked up): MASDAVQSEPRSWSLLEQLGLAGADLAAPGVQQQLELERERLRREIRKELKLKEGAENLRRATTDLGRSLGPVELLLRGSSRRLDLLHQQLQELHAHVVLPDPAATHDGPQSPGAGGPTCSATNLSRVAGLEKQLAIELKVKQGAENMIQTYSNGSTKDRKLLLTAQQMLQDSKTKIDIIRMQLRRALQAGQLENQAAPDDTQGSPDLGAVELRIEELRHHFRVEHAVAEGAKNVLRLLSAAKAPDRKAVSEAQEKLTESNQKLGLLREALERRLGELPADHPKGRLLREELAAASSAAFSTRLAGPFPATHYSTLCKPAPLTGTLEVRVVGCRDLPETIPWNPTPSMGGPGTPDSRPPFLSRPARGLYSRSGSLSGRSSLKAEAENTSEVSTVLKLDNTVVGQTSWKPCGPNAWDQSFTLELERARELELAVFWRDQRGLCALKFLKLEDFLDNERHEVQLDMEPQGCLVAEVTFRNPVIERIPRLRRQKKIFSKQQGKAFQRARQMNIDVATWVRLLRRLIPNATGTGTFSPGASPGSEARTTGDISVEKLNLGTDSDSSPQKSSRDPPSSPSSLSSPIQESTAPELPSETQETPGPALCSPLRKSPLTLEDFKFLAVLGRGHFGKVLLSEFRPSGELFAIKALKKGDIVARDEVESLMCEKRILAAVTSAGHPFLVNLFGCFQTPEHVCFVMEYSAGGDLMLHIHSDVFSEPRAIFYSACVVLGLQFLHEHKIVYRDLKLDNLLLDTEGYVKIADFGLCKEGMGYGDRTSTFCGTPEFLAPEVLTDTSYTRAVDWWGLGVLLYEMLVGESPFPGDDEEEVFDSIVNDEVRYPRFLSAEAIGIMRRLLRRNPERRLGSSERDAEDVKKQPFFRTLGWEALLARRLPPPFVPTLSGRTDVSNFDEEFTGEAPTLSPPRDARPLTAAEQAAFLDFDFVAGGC
compounds and their reported residual activity
Answer in %, number only, no unit symbol.

smiles entry | target desc | recorded value
CN(C)C[C@H]1CCn2c(c(C3=C(c4cn(C)c5ccccc45)C(=O)NC3=O)c3ccccc32)C1 | UniProt:Q16512 | 7.06
O=C1NC(=O)/C(=C\c2ccc3nccnc3c2)S1 | UniProt:Q16512 | 101
Nc1nccc(-c2c(-c3ccc(F)cc3)ncn2C2CCNCC2)n1 | UniProt:Q16512 | 96.3
Cn1sc(=O)n(Cc2ccccc2)c1=O | UniProt:Q16512 | 98.5
O=C1Cc2c([nH]c3ccc(Br)cc23)-c2ccccc2N1 | UniProt:Q16512 | 101
O=C1NC(=O)C(c2c[nH]c3ccccc23)=C1c1c[nH]c2ccccc12 | UniProt:Q16512 | 84.6

The compound listed as COc1ccc(CNC(=O)Nc2ncc([N+](=O)[O-])s2)cc1 has a reported residual activity of 94.3

For this compound ( O=C(Nc1cccc(Nc2cc(Nc3cccc(C(F)(F)F)c3)ncn2)c1)C1CC1 ), measured residual activity is 98.9

Lookup result for CN([C@@H](Cc1ccc(OS(=O)(=O)c2cccc3cnccc23)cc1)C(=O)N1CCN(c2ccccc2)CC1)S(=O)(=O)c1cccc2cnccc12 ; measured residual activity: 105

Input Oc1ccc(Nc2nc(-c3ccc(Cl)cc3)cs2)cc1 . Output residual activity: 99.5

* * *

molecular target: RPS6KA4 KD2 (human) (UniProt O75676); assay: radiometric filter-binding kinase assay, Kinase HotSpot; settings: compound 0.5 µM; ATP 10 µM
Sequence (O75676 whole entry, looked up): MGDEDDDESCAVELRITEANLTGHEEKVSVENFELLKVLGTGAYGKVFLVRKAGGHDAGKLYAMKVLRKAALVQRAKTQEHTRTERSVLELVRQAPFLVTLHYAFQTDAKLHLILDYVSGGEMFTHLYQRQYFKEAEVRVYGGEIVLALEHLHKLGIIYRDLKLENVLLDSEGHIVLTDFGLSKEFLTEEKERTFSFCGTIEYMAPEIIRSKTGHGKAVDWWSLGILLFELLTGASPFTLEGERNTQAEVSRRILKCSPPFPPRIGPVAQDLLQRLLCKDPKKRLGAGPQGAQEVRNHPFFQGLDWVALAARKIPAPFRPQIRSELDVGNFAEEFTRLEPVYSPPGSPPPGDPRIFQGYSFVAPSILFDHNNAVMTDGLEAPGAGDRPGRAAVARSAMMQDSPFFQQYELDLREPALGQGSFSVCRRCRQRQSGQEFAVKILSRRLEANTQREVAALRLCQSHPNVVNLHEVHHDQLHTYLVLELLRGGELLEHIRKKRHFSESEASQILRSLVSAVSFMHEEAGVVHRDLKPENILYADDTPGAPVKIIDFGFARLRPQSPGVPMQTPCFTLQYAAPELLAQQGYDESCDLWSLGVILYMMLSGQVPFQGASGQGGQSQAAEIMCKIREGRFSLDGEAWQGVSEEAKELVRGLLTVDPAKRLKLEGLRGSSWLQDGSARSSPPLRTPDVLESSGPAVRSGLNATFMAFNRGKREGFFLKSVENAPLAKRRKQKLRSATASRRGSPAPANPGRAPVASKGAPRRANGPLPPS
Listed here are compounds together with their documented residual activity.
Write down the numeric answer in % and omit the unit.

smiles entry | assay metric | recorded value
CC(=O)O/N=C1\C(=C2\C(=O)Nc3cc(Br)ccc32)Nc2ccccc21 | residual activity | 97.6
Cc1nc2cc3nc(-c4cccs4)cnc3cc2n1C | residual activity | 88.4

Documented residual activity of COc1cc2ncnc(N3CCN(C(=O)Nc4ccc(Oc5ccccc5)cc4)CC3)c2cc1OC : 96.2

// residual activity lookup, compound = CC(C)c1nn(-c2c(Cl)cccc2Cl)c2nc(Cc3ccc(OCCO)cc3)nc(O)c12 , result: 95.3

The compound listed as Cn1cnc2cc3c(Nc4cccc(Br)c4)ncnc3cc21 shows residual activity equal to 96.3

The compound identified as Cn1sc(=O)n(Cc2ccccc2)c1=O registered its residual activity at 99

residual activity recorded for this compound, Nc1nccc(-c2c(-c3ccc(F)cc3)ncn2C2CCNCC2)n1 , is 98.7

# compound O=C(O)/C=C/c1cc(Br)c(Br)c(Br)c1Br ; its residual activity = 103

* * *

biological target: DCLK2 (human); assay: radiometric filter-binding kinase assay, Kinase HotSpot; conditions: compound 0.5 µM; ATP 10 µM
Here, each record is paired with measured residual activity data.
Please append the unit to your numeric answer.

Reference set (3 entries):
molecule | residual activity
O=C1NC(=O)C(c2c[nH]c3ccccc23)=C1c1c[nH]c2ccccc12 | 89.3%
O=C1Nc2ccccc2/C1=C1/Nc2ccccc2/C1=N\OCCC(O)CO (stereo not drawn) | 86.4%
O=C1NC(=O)/C(=C\c2ccc3nccnc3c2)S1 | 94.3%

Note to self: residual activity recorded for Cn1nc2c3c(cccc31)C(=O)c1ccccc1-2 was 94.2%

Per the record, CN([C@@H](Cc1ccc(OS(=O)(=O)c2cccc3cnccc23)cc1)C(=O)N1CCN(c2ccccc2)CC1)S(=O)(=O)c1cccc2cnccc12 has residual activity of 94.1%

Kindly note the recorded residual activity for Nc1nccc(-c2c(-c3ccc(F)cc3)ncn2C2CCNCC2)n1 , which is 99.9%

Notebook: Nc1nnc2[nH]c3ccccc3nc1-2 , residual activity read as 94.6%

What the record says about CCn1cnc2c(Nc3cccc(Cl)c3)nc(N[C@@H]3CCCC[C@@H]3N)nc21 : residual activity is 93.1%

residual activity in this record for COc1cc2ncnc(N3CCN(C(=O)Nc4ccc(Oc5ccccc5)cc4)CC3)c2cc1OC : 90.6%

# residual activity (molecule: COc1ccc(OC)c2c(=S)c3ccccc3[nH]c12 ) is 94.6%

# residual activity of O=C(CCCc1ccc(-c2ccccc2F)cc1)Nc1ccc(O)cc1 = 96.1%

The molecule listed as O=C(Nc1cccc(Nc2cc(Nc3cccc(C(F)(F)F)c3)ncn2)c1)C1CC1 has a reported residual activity of 101%

residual activity in this record for CC(C)c1nn(-c2c(Cl)cccc2Cl)c2nc(Cc3ccc(OCCO)cc3)nc(O)c12 : 95.9%

The measured residual activity associated with O=C1NC(=O)C(c2cn(CCCO)c3ncccc23)=C1c1cnccn1 reads 90.1%

// sample COc1ccc(CNC(=O)Nc2ncc([N+](=O)[O-])s2)cc1 , its residual activity was 99.2%

Recorded result, Cn1sc(=O)n(Cc2ccccc2)c1=O , residual activity: 98.5%

residual activity reported for this molecule O=C(O)/C=C/c1cc(Br)c(Br)c(Br)c1Br : 94.8%

The reported residual activity of the molecule Oc1ccc(Nc2nc(-c3ccc(Cl)cc3)cs2)cc1 was 98.5%

Short answer for CCN(CC)CCCCN1c2ccccc2Oc2ccc(Cl)cc21 : residual activity was 101%

residual activity reading for CC(C)[C@H](CO)Nc1nc(Nc2cc(N)cc(Cl)c2)c2ncn(C(C)C)c2n1 : 105%

// recorded residual activity for Cc1nc2cc3nc(-c4cccs4)cnc3cc2n1C : 104%

Entry Cn1cnc2cc3c(Nc4cccc(Br)c4)ncnc3cc21 — recorded residual activity = 92.9%

O=C1Cc2c([nH]c3ccc(Br)cc23)-c2ccccc2N1 has a reported residual activity of 94.6%
